The measured values listed here are drawn from patent US5376640A.

target: porcine pancreatic lipase (Sus scrofa, UniProt P00591); construct: purchased Sigma Co., Ltd; test: Assay of lipase inhibitory activity (olive oil emulsion with sodium cholate, Tris buffer pH 6.8); format: biochemical; conditions: lysine oligomer solution 1 μmol/ml; % of control
Sequence (P00591 whole entry): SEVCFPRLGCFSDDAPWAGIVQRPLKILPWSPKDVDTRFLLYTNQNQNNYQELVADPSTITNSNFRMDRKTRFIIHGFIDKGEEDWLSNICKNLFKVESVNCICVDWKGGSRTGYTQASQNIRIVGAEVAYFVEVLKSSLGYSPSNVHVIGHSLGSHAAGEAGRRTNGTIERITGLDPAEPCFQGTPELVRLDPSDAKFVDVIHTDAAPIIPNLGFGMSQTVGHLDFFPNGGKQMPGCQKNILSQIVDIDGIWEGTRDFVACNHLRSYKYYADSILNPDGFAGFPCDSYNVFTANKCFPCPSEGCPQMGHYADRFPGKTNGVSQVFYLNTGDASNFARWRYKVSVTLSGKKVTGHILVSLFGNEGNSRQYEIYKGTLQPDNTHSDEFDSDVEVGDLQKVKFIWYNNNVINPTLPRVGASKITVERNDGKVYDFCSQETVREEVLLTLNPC
Where a SMILES comes first, the peptide text is derived from it.
Assign labels as follows, please: 1 for Activity of porcine pancreatic lipase (%) below 90%; -1 for Activity of porcine pancreatic lipase (%) equal to or exceeding 90%.

[[record]]
compound = "NCCCC[C@H](NC(=O)[C@@H](N)CCCCN)C(=O)O [α-(L-lysine)2]"
cat = -1

[[record]]
compound = "NCCCC[C@H](NC(=O)[C@H](CCCCN)NC(=O)[C@H](CCCCN)NC(=O)[C@@H](N)CCCCN)C(=O)O [α-(L-lysine)4] (H-KKKK-OH)"
cat = -1

[[record]]
compound = "NCCCC[C@H](N)C(=O)NCCCC[C@H](N)C(=O)NCCCC[C@H](N)C(=O)NCCCC[C@H](N)C(=O)NCCCC[C@H](N)C(=O)O [ε-(L-lysine)5]"
cat = 1


Request: Hello, I'm reviewing records and need to know if Activity of porcine pancreatic lipase (%) of NCCCC[C@H](N)C(=O)NCCCC[C@H](N)C(=O)NCCCC[C@H](N)C(=O)NCCCC[C@H](N)C(=O)O [ε-(L-lysine)4] is below 90%. Could you check?
Response: 1
